- assay: NCI Yeast Anticancer Drug Screen. Data for the bub3 strain (AID 167)
- test_parameters: S. cerevisiae bub3 mutant strain, at 50.0 µM, stronger effect = higher value
About 79,000 compounds went through this panel and 15% of them were active in at least one assay; those are over-represented in the sample as a whole. Calls of active or inactive are those of the source. No stated cut-off is given here; in the data, active means growth inhibition above about 70%; inactive means the rest.
recorded_metric: growth inhibition

compound C/C(=N\N=C(\[Se])N1CCN(c2ccccn2)CC1)c1ccccn1 , growth inhibition observed: 93.2% (active)

Short answer for [Au+].c1c[n-]cn1.c1ccc([PH+](c2ccccc2)c2ccccc2)cc1 : growth inhibition was 97.2% (active)

Record summary for CC1=C[n+]2cc(C)ccc2Sc2c1ccc1ccccc21 : reported growth inhibition = 66.9% (inactive)

get_value(item= CCCC[CH2][Pb]([CH2]CCCC)([CH2]CCCC)[O]C(C)=O , readout=growth inhibition) returns 98% (active)

Looking up Cc1nc(Cl)c(CBr)c(Cl)n1 , I found its growth inhibition recorded as 52.5% (inactive)

Briefly, growth inhibition measured for O=[N+]([O-])/C=C/c1cc2c(cc1Br)OCO2 : 82.5% (active)

More entries:
The compound listed as O=[N+]([O-])c1ccc(O)c(CCl)c1 has a reported growth inhibition of 8.65% (inactive)

// C1CC[CH]([Sn]([CH]2CCCCC2)[CH]2CCCCC2)CC1.C1CC[CH]([Sn]([CH]2CCCCC2)[CH]2CCCCC2)CC1 : growth inhibition value = 9.5% (inactive)

// [N-]=[N+]=C1C(Cl)=C(Cl)C(Cl)=C1Cl : growth inhibition value = 99% (active)

Measured growth inhibition of COc1ccc(C(Cc2ccc(Cl)c(Cl)c2)NCCO)cc1 (stereo not given) : 59.1% (inactive)

growth inhibition reading for COC(=O)c1c(C)ccc2c(O)c3c(cc12)C(=O)c1c2c(cc(O)c1C3=O)C1(C)OC(C)(O2)C(O)C(N(C)C)C1O (stereo not given) : 95.7% (active)

---

Recorded growth inhibition, one value per entry.
- assay: NCI Yeast Anticancer Drug Screen. Data for the cln2 rad14 strain (AID 165);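 further: 0% = growth equal to vehicle treated cultures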
- test_parameters: S. cerevisiae cln2 rad14 strain, at 50.0 µM, stronger effect = higher value
Compounds without any hit were thinned out: in the full panel of roughly 79,000, 15% have a hit.
The reply should be a number in %, with the unit left off.

Please fill in: growth inhibition reported for CCCCCCC[CH2][Sn]([F])([F])[CH2]CCCCCCC = 19.9

GET /value?item= N#CC(C#N)=Cc1ccc([N+](=O)[O-])s1 &field=growth inhibition returns 98.5

For this molecule ( C[N+]1(CCCl)CC[N+](C)(CCCl)CC1 (stereo not drawn) ), measured growth inhibition is 94.3

Now take the following molecule into account.
The molecule listed as CCOc1ccc(/C=C/[N+](=O)[O-])cc1[N+](=O)[O-] has a reported growth inhibition of 99

---

Measured growth inhibition, listed per entry for reference.
- assay: NCI Yeast Anticancer Drug Screen. Data for the sgs1 strain (AID 173);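 further: 0% = growth of vehicle-only control cultures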
- test_parameters: S. cerevisiae sgs1 mutant, at 100.0 µM, stronger effect = higher value
This is part of a sample that, as a whole, favours compounds with a hit. Of some 79,000 tested, about 15% had one in any assay.
I only need the number, in %, no unit after it.

Reference set (6 entries):
compound CCCCCCCCCCCCCCCCP(=O)(O)OP(=O)(O)OCC1OC(n2ccc(N)nc2=O)C(O)C1O (stereo not drawn) , growth inhibition observed: 21

Measured growth inhibition of Cc1ccc2c(c1N)C(=O)c1ccccc1C2=O : 5

Entry O=C1c2ccc3ccccc3c2CCC1N1CCCCC1 (stereo not drawn) — recorded growth inhibition = 98

GET /value?item= O=C(O)C1C2C=CC(C2)C1c1ccccc1 (stereo not drawn) &field=growth inhibition returns 40

Value of measured growth inhibition for the entry O=[N+]([O-])c1cc([As](Br)c2ccc(O)c([N+](=O)[O-])c2)ccc1O : 99

Entry CC1CC(C)CC(C)C(O)/C(C#N)=C/C=C/CC(C2CCCC2C(=O)O)OC(=O)CC(O)C(C)C1 (stereo not drawn) , growth inhibition reported as 97

# context switch: different compound, same growth inhibition
Kindly note the recorded growth inhibition for CSc1ccccc1[As](C)C , which is 99

---

Each item that follows carries a reported growth inhibition.
- assay: NCI Yeast Anticancer Drug Screen. Data for the bub3 strain (AID 167)
- test_parameters: S. cerevisiae bub3 mutant strain, at 5.0 µM (retest, dose inferred, filed as 0.5), stronger effect = higher value
About 79,000 compounds went through this panel and 15% of them were active in at least one assay; those are over-represented in the sample as a whole. Calls of active or inactive are those of the source. Rule as the data show it: active = growth inhibition above about 70%; inactive = the rest.

get_value(item= Cc1ccc(P(=O)(c2ccc(C)cc2)c2ccc(C)cc2)cc1.Cc1ccc(P(=O)(c2ccc(C)cc2)c2ccc(C)cc2)cc1.[Cl][Sn]([Cl])([Cl])[Cl] , readout=growth inhibition) returns 13% (inactive)

Query CSc1ccc2c(c1)c(CCN)c(C)n2Cc1ccccc1Cl yields growth inhibition of -7% (inactive)

Reported growth inhibition of CCCCCCCCCCCCN1CC1 : 1% (inactive)

growth inhibition for S=P(S)(Oc1ccccc1)Oc1ccccc1 is -4% (inactive)

***
// sample FC(F)(F)c1nnn[n-]1.[Au+].c1ccc([PH+](c2ccccc2)c2ccccc2)cc1 , its growth inhibition was 98% (active)

Briefly, growth inhibition measured for C[CH2][Pb]([CH2]C)([CH2]C)[n]1cnc2ccccc21 : 2% (inactive)

Documented growth inhibition of CCNC(=O)O/N=C1/C=C2CC[C@@H]3C(CC[C@@]4(C)C3CC[C@@H]4OC(=O)NCC)[C@@]2(C)CC1 (stereo not given in full) : 93% (active)

The measured growth inhibition associated with CN1CSC(=S)N(C)C1 reads 4% (inactive)

Record Cc1cc[n+](C2=C(Nc3cccc(C(F)(F)F)c3)C(=O)c3ccccc3C2=O)cc1 . Reported growth inhibition: 1% (inactive)

# molecule CC(=O)OC1CCC2(C)C3=C(CCC2C1(C)C)C1(C)CCC(C(C)CCC2NC2(C)C)C1(C)CC3 (stereo not given) ; its growth inhibition = -1% (inactive)

---

- assay: NCI Yeast Anticancer Drug Screen. Data for the sgs1 mgt1 strain (AID 161);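 further: 0% = growth of cultures given vehicle only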
- test_parameters: S. cerevisiae sgs1 mgt1 strain, at 50.0 µM (retest, dose inferred, filed as 5.0)
Compounds without any hit were thinned out: in the full panel of roughly 79,000, 15% have a hit. Activity calls are given as the source filed them. Cut-off read from the data, not from the text of the source: active = growth inhibition above about 70%; inactive = the rest.
Hi there, use one of these labels in your reply, thanks! label 1 (active), label 0 (inactive)

Past entries and their recorded results:
Task item: What call does the record list for S=P(Nc1ccccc1)(Nc1ccccc1)Nc1ccccc1 ?
Reply: label 1

Task item: Just curious, what result did CN(C)C(=S)[S][Sb]([c]1ccccc1)[c]1ccccc1 get here?
Reply: label 1

Task item: Please state the recorded outcome for this compound: C/C(=N\NS(=O)(=O)c1ccc(C)cc1)C(CN1CCOCC1)C(c1ccccc1)c1c(O)c2ccccc2oc1=O (stereo unspecified)
Reply: label 0

Task item: // return assay outcome for CC1=C(CO)C(=O)OC(C(C)C2CCC3C4CC5OC56C(O)C(N5CC5)=CC(=O)C6(C)C4CCC23C)C1 (stereo unspecified)
Reply: label 0

Task item: Lab log entry: CSc1nncc(=O)[nH]1.[Hg] — outcome as called in the assay?
Reply: label 1

Next:
Task item: Can you look up the reported call for N#Cc1ccccc1C(Cl)(Cl)Cl for me?
Reply: label 0

Task item: Hi team, can someone confirm the assay call for O=C(CCCC(=O)NNC(=O)Nc1cccc(S(=O)(=O)F)c1)NNC(=O)Nc1cccc(S(=O)(=O)F)c1 ?
Reply: label 0

Task item: Call for entry COC12C(COC(C)=O)C3=C(C(=O)C(C)=C(N4CCCCC4)C3=O)N1CC1NC12 (stereo unspecified) :
Reply: label 1

Task item: Tell me the recorded outcome of this test for CC[n+]1c(/C=C/c2ccc(N(CCCl)CCCl)cc2)ccc2cc(I)ccc21 .
Reply: label 1

Task item: Outcome logged for N.N.N.N.N.N#N.[Cl-].[Os+7] in this assay:
Reply: label 1

Task item: So what was the verdict on CC(=O)[O][Hg][c]1cc2c(cc1O)Cc1cc([N+](=O)[O-])ccc1-2 in this test?
Reply: label 1

---

- assay: NCI Yeast Anticancer Drug Screen. Data for the bub3 strain (AID 167)
- test_parameters: S. cerevisiae bub3 mutant strain, at 50.0 µM, stronger effect = higher value
Compounds without any hit were thinned out: in the full panel of roughly 79,000, 15% have a hit.
Label YES when growth inhibition is at or above 50%; anything below gets NO.

Task item: I'd appreciate it if you could say whether O=P(Nc1cccc(Cl)c1)(Oc1ccccc1)N(CCCl)CCCl (stereo unspecified) has growth inhibition at least equal to 50%.
Reply: YES

Next:
Task item: Please tell me: is the molecule CCC1CC2CCC(O2)C(C)C(=O)OC(C)CC2CCC(O2)C(C)C(=O)OC(CC)CC2CCC(O2)C(C)C(=O)OC(C)CC2CCC(O2)C(C)C(=O)O1 (stereo unspecified) at or over 50% in terms of growth inhibition?
Reply: YES

Task item: Decide: is the reported value of growth inhibition for Oc1ccc2ccccc2c1O equal to or greater than 50%?
Reply: YES

Task item: # bool: growth inhibition of CCNC(C)(C)C(SS)c1ccc(Br)cc1 (stereo unspecified) >= 50%
Reply: YES

Each recorded value in this set is attributed to PubChem BioAssay (NCI).
